target: human α4β7 integrin (Homo sapiens, UniProt P13612+P26010); experiment: α4β7-K562 Cell Adhesion Assay (α4β7 Mediated Adhesion/MAdCAM-1); settings: K562 cells expressing human α4β7 adhering to FLAG-hMAdCAM-1, 1 mM Mn2+
pIC50: −log10 of the molar value.
measure_name: pIC50

Exam item: I have this molecule here, COc1cnn(C)c(=O)c1-c1ccc(C[C@H](NC(=O)N[C@H]2CC3CCC2C3)C(=O)O)cc1 (stereo partly drawn) , and I need its recorded pIC50.
Marked response: 6.74

Exam item: Another molecule to check: COc1cnn(C)c(=O)c1-c1ccc(C[C@H](NC(=O)N2CCN(C3C4CC5CC(C4)CC3C5)CC2)C(=O)O)cc1 (stereo partly drawn)
Marked response: 5.70

Exam item: Another molecule to check: COc1cnn(C)c(=O)c1-c1ccc(C[C@H](NC(=O)N(O)C2CCCCC2)C(=O)O)cc1
Marked response: 6.22

Exam item: Another molecule to check: COc1cnn(C)c(=O)c1-c1ccc(C[C@H](NC(=O)N(CCO)Cc2ccccc2)C(=O)O)cc1
Marked response: 6.51

Exam item: Another molecule to check: COc1cnn(C)c(=O)c1-c1ccc(C[C@H](NC(=O)N(CC(C)C)c2ccccc2)C(=O)O)cc1
Marked response: 6.67

Exam item: Another molecule to check: COc1cnn(C)c(=O)c1-c1ccc(C[C@H](NC(=O)N(c2ccccc2)c2ccccc2)C(=O)O)cc1
Marked response: 5.84

[I] COc1cnn(CCO)c(=O)c1-c1ccc(C[C@H](NC(=O)Nc2c(Cl)cccc2Cl)C(=O)O)cc1
[II] COc1cnn(C)c(=O)c1-c1ccc(C[C@H](NC(=O)N2CCC[C@H]2CN2CCCC2)C(=O)O)cc1
[III] COc1cnn(C)c(=O)c1-c1ccc(C[C@H](NC(=O)N(Cc2ccccc2)CC(C)C)C(=O)O)cc1
[IV] COc1cnn(C)c(=O)c1-c1ccc(C[C@H](NC(=O)N(c2ccccc2)C(C)C)C(=O)O)cc1
Exam item: Put the molecules in ascending order of pIC50. Use the labels to give the requested order.
Marked response: II, III, IV, I

[A] COc1cnn(C)c(=O)c1-c1ccc(C[C@H](NC(=O)N(C(C)C)C(C)C)C(=O)O)cc1
[B] COc1cnn(C)c(=O)c1-c1ccc(C[C@H](NC(=O)NC2CCCCC2)C(=O)O)cc1
Exam item: Among A and B , whose measured pIC50 is the smaller figure? Pick one; state its label.
Marked response: B
(B: 6.30, A: 6.91)

* * *

target: human α4β7 integrin (Homo sapiens, UniProt P13612+P26010); experiment: α4β7-K562 Cell Adhesion Assay (α4β7 Mediated Adhesion/MAdCAM-1); conditions: K562 cells expressing human α4β7 adhering to FLAG-hMAdCAM-1, 1 mM Mn2+
measure_name: IC50 (nM)

[a] COc1cnn(C)c(=O)c1-c1ccc(C[C@H](NC(=O)N(CCO)c2ccccc2)C(=O)O)cc1
[b] COc1cnn(C)c(=O)c1-c1ccc(C[C@H](NC(=O)N(C2CC2)C2CCN(C)CC2)C(=O)O)cc1
Exam item: Endpoint returns the identifier whose IC50 is numerically larger, either a or b . Pick one; state its label.
Marked response: b
(b: 135 nM, a: 69 nM)

* * *

Target: human α4β7 integrin (Homo sapiens, UniProt P13612+P26010)
Sequence (P13612 34-1032): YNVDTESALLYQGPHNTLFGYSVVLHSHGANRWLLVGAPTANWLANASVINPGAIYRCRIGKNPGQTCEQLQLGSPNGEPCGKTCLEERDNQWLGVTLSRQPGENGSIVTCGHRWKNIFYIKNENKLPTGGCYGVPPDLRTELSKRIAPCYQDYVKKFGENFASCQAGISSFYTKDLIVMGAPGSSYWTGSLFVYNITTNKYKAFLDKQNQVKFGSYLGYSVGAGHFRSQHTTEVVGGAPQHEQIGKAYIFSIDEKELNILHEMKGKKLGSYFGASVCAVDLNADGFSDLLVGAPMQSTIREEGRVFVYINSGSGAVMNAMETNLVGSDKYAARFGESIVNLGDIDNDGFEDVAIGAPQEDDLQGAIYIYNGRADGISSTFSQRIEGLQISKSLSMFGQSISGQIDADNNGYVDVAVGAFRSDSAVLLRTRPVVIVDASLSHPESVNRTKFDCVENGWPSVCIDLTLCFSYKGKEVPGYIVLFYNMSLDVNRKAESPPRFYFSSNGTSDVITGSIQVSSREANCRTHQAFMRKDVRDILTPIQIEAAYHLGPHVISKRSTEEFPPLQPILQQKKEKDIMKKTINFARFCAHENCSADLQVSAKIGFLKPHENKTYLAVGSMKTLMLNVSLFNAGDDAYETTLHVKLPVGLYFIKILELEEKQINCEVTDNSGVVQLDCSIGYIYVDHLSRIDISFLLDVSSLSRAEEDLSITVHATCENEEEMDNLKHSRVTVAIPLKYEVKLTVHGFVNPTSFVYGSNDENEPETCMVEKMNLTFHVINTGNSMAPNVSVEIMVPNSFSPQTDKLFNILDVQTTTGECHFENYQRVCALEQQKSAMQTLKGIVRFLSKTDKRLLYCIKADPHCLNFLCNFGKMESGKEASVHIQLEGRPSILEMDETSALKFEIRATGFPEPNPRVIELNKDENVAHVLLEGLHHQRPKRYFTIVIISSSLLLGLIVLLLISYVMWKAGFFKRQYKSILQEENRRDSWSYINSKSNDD
Sequence (P26010 20-798): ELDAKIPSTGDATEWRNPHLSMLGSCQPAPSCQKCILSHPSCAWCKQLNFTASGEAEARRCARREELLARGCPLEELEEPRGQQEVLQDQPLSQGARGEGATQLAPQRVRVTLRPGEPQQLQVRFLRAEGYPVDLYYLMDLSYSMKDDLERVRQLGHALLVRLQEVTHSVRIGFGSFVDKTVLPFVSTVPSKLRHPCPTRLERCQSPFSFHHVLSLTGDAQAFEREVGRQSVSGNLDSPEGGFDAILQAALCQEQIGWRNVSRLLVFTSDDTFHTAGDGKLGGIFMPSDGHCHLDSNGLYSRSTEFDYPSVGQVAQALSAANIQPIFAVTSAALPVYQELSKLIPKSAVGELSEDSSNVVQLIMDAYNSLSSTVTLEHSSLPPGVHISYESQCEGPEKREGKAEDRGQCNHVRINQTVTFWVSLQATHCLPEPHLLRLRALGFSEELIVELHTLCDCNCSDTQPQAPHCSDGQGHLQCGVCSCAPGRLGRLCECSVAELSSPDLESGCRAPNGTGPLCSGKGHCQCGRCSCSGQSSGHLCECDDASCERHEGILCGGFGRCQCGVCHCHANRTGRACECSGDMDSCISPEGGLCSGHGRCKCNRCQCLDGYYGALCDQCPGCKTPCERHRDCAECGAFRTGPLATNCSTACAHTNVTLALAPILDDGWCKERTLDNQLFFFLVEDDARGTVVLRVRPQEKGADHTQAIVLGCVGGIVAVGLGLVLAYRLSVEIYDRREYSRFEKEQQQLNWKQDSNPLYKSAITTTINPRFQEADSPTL
Assay: α4β7-K562 Cell Adhesion Assay (α4β7 Mediated Adhesion/MAdCAM-1)
Details: K562 cells expressing human α4β7 adhering to FLAG-hMAdCAM-1, 1 mM Mn2+
measure_name: IC50 (nM)

Exam item: I have this compound here, COc1cnn(C)c(=O)c1-c1ccc(C[C@H](NC(=O)N(C)C2CCCCC2)C(=O)O)cc1 [Cpd 11] , and I need its recorded IC50.
Marked response: 53

[P] CCN(CCN(C)C)C(=O)N[C@@H](Cc1ccc(-c2c(OC)cnn(C)c2=O)cc1)C(=O)O [Cpd 37]
[Q] COc1cnn(C)c(=O)c1-c1ccc(C[C@H](NC(=O)N(C)c2ccccc2OC(F)(F)F)C(=O)O)cc1 [Cpd 51]
[R] COc1cnn(C)c(=O)c1-c1ccc(C[C@H](NC(=O)N(C)Cc2ccccc2)C(=O)O)cc1 [Cpd 12]
[S] COc1cnn(C)c(=O)c1-c1ccc(C[C@H](NC(=O)N(C)CCO)C(=O)O)cc1 [Cpd 14]
Exam item: Put the compounds in ascending order of IC50. Use the labels to give the requested order.
Marked response: Q, S, P, R
